test system: Mus musculus; test: In vivo inhibition of mouse ear inflammation; format: functional; parameters: concentration or dose not given beside the values
Use 1 when the recorded Inhibition is no lower than 60%; use 0 when it is lower.

q: Hi team, for O=C(CCCc1ccccc1)N(O)Cc1ccccc1 , is the recorded Inhibition at or above 60%?
a: 0

q: Hi team, for COc1ccc(CC(=O)N(O)CCc2ccccc2)cc1 , is the recorded Inhibition at or above 60%?
a: 0

q: Hi team, for O=C(CCCc1ccccc1)NO [PHENYLBUTYRYLHYDROXAMIC ACID] , is the recorded Inhibition at or above 60%?
a: 0

----------
Listing: inhibition of selected compounds
biological target: Cyclooxygenase (Rattus norvegicus) (UniProt P35355+Q63921); assay: Inhibition of Prostaglandin G/H synthase in rat polymorphonuclear leukocytes; format: cell-based; set-up: concentration or dose not given beside the values; details: concentration not given here

O=C(Cc1ccc(OCc2ccccc2)cc1)N(O)CCc1ccccc1
< 10%
CN(O)C(=O)CCCCc1ccccc1
< 10%
O=C(O)CCCN(O)C(=O)CCCc1ccccc1
< 10%

Continue with the compound presented below.
q: Request the reported inhibition associated with O=C(Cc1ccc(OCc2ccccc2)cc1)N(O)CCCc1ccccc1
a: < 10%
